# Tested on: HOP-92 NSCLC
# Experimental protocol: NCI tumour cell line growth inhibition, 48 h
Output label 1 for TGI not less than 20 µM; output label 0 otherwise.

Compound	Target of assay	Assigned category
COc1ccc(N(C(=O)NCCO)c2ccccc2)cc1	HOP-92 NSCLC	label 1
Cc1cc(O)cc(C)c1/C=C/c1cncc(C(=O)OC(C)(C)C)c1	HOP-92 NSCLC	label 0
Cc1cc2c(cc1C)[n+](Cc1ccc3ccccc3n1)cn2Cc1ccc2ccccc2n1	HOP-92 NSCLC	label 0
Cn1c2ccccc2c2nnc(NNCc3ccccn3)nc21	HOP-92 NSCLC	label 0
Cc1nc2ccccc2c(=O)n1/N=C/c1ccc(N(C)C)cc1	HOP-92 NSCLC	label 1
Cc1nn(-c2ccccc2)c2nc3ccc(Cl)cc3c(-c3ccccc3)c12	HOP-92 NSCLC	label 1
CC(=O)NC1=C(Sc2ccc(Cl)cc2)C(=O)c2ccccc2C1=O	HOP-92 NSCLC	label 0
Oc1c(CNCCNCc2cc(Cl)cc(Cc3ccccc3)c2O)cc(Cl)cc1Cc1ccccc1	HOP-92 NSCLC	label 1
CCOC(=O)C1=C(C)NC(C)=C(C(=O)OCC)C1c1ccc(C)cc1	HOP-92 NSCLC	label 1
COC(=O)c1ccc(C)cc1CC1Cc2c(C)cccc2C1=O (stereo not given)	HOP-92 NSCLC	label 1
COC(=O)C1C(O)C(C)C(O)OC1C(C)C(O)C(C)/C=C\C=C(/C)C(=O)Nc1c(C)c(OC(C)=O)c2c(c1O)C(=O)C(C)=C1OCOC(/C(C)=C/C(C)=O)=C12 (stereo not given)	HOP-92 NSCLC	label 1
O=c1c2c3c(sc2nc2n1N=C(c1ccc([N+](=O)[O-])cc1)CS2)CCCC3	HOP-92 NSCLC	label 1
CC(=O)c1cccc(NC(=O)c2ccc(NC3=C(Cl)C(=O)N(Cc4ccccc4)C3=O)cc2)c1	HOP-92 NSCLC	label 1
O=C(NC(=O)c1cc2cc(Br)cc(Br)c2oc1=O)Oc1ccccc1	HOP-92 NSCLC	label 1
O=Nc1c(O)c2ccccc2c2ccccc12	HOP-92 NSCLC	label 0
Cc1ccc(NC(=O)/C(=N\NC(N)=O)c2c(O)c3ccccc3[nH]c2=O)cc1	HOP-92 NSCLC	label 1
Cc1[nH]c(=O)nc(N(CCO)/N=C/c2ccc(Cl)cc2)c1C(=O)Nc1ccc(Cl)cc1	HOP-92 NSCLC	label 1
O=c1[nH]c(=O)n2n1C1C=CC2CC1	HOP-92 NSCLC	label 1
COC(=O)C(=O)C(CC(=O)Nc1cccc(C(F)(F)F)c1)C(=O)OC (stereo not given)	HOP-92 NSCLC	label 1

----------
# Test system: HCC-2998 colon
# Experimental protocol: NCI tumour cell line growth inhibition, 48 h
Readout: TGI (µM)

Compound	Reading qualifier	Number
O=C1c2c(c3c4ccccc4[nH]c3c3[nH]c4ccccc4c23)C(=O)N1Cc1ccccc1	=	16.3
Oc1ccccc1-c1nn2c(CCCCCCCCc3nnc4sc(-c5ccccc5O)nn34)nnc2s1	>	100
CNC(=O)c1cc2c(Oc3ccc(NC(=S)NC(=O)Cc4ccccc4)cc3F)ccnc2cc1OC	>	100
CC(C)(O)CCc1ccc(O)c2c(=O)c3c(O)c4c(cc3oc12)O[C@H]1OC=C[C@@]41O	<	0.0176
Cc1cc(S(N)(=O)=O)c(S/C(=N\Nc2ccc([N+](=O)[O-])cc2)c2ccc3ccccc3c2)cc1Cl	=	30.1
CCCCCCCCCCCCCCCCOc1ccc(/C=C/C2=[N+](CCCl)CCO2)cc1	>	100
Cc1cc(=O)c2ccccc2n1CCCCCCCCCCn1c(C)cc(=O)c2ccccc21	=	24.1
Nc1ncnc2nn(C3OC(CO)C(O)C3O)nc12 (stereo not given)	=	32.8
O=[N+]([O-])c1ccc(COc2cccc3cccnc23)cc1	>	100
CC(C)(C)OC(=O)NCCCCCCCCCCn1c2c(c3ccccc3c1=O)C(=O)c1ccccc1-2	>	100
